- target-entity: GluA1o-γ8 (GRIA1o-CACNG8 fusion construct; TARP γ8 dependent AMPA receptor) (Homo sapiens (Human), UniProt P42261+Q8WXS5)
- Sequence (P42261 other isoform, or with tags, fused parts or gaps): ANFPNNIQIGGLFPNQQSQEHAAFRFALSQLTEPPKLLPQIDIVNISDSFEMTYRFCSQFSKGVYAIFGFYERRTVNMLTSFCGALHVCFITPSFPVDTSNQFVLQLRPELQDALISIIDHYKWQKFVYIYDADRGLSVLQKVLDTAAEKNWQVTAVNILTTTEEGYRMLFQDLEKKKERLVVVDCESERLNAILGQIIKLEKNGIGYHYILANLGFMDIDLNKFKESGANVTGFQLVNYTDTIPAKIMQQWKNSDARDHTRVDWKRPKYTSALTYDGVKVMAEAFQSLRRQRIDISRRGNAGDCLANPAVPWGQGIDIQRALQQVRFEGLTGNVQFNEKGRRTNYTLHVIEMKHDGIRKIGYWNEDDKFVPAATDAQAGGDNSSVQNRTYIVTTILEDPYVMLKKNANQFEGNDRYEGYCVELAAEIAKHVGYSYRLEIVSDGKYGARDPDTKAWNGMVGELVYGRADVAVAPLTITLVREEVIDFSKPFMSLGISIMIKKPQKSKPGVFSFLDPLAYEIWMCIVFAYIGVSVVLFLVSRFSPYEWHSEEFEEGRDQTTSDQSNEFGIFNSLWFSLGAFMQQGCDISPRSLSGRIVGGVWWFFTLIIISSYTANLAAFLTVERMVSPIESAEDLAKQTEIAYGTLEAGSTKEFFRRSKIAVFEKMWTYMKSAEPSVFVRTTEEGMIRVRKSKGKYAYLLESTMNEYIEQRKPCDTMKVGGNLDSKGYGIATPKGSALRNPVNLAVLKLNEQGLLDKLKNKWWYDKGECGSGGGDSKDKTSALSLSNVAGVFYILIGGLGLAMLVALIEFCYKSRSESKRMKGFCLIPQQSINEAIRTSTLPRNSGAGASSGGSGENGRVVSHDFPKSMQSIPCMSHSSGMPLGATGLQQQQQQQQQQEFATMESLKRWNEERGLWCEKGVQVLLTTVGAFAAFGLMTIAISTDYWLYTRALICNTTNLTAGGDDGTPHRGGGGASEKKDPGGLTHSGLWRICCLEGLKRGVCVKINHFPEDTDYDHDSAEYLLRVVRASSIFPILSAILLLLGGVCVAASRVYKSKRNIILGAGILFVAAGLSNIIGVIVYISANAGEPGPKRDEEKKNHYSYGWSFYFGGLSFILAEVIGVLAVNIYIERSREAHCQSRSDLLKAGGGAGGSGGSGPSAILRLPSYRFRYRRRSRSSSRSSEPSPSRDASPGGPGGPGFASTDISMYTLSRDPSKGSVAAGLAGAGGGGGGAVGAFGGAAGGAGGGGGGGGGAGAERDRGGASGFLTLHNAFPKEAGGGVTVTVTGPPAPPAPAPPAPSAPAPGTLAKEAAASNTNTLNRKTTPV
- procedure-details: Calcium flux assay (FLIPR), inhibition of glutamate response of GluA1o-γ8 channel
- Assay type: cell-based
- experimental-context: HEK293 cells stably expressing GRIA1o-CACNG8 fusion; 15 μM glutamate; pIC50 = negative log of IC50 in molar; read-out: GluR1-γ8 (pIC50) (converted)
quantity: IC50 (nM)
Answer format: numeric, nM implied, no suffix.

Any idea what its IC50 is? The compound is O=C1Cc2cc(-c3c(-c4ccc(F)cc4)nc4c(N5CCCC(O)C5)nccn34)ccc2N1 (stereo not drawn)
0.316

Try "CC(=O)N1CCN(c2nccn3c(-c4ccc5c(c4)CC(=O)N5)c(C(=O)c4ccccc4)nc23)CC1" next.
5.01

How about "COC1CN(c2nccn3c(-c4ccc5c(c4)CC(=O)N5)c(-c4ccccc4)nc23)C1" ?
2

Entry to check: "O=C1CN(c2nccn3c(-c4ccc5c(c4)CC(=O)N5)c(-c4ccc(F)cc4)nc23)CCN1"
0.501

Same for "Cc1cnc(N2CCOCC2)n2nc(-c3ccccc3)c(-c3ccc4[nH]ncc4c3)c12"
0.0794

Another compound to check: "O=C(Nc1ccccn1)c1nc2c(N3CCOCC3)nccn2c1-c1ccc2[nH]c(=O)[nH]c2c1"
31.6

What would you report for "COC1CN(c2nccc3c(-c4ccc5c(c4)CC(=O)N5)c(-c4ccccc4)nn23)C1" ?
2.51

Moving on to the next compound: "O=C1Cc2cc(-c3c(C4CCC4)nc4c(N5CCOCC5)nccn34)ccc2N1"
200

Same again, this time with "CC1(O)CN(c2nccn3c(-c4ccc5c(c4)CC(=O)N5)c(-c4ccc(F)cc4)nc23)C1"
1.26

###

- target-entity: GluA1o-γ8 (GRIA1o-CACNG8 fusion construct; TARP γ8 dependent AMPA receptor) (Homo sapiens (Human), UniProt P42261+Q8WXS5)
- procedure-details: Calcium flux assay (FLIPR), inhibition of glutamate response of GluA1o-γ8 channel
- Format: cell-based
- experimental-context: HEK293 cells stably expressing GRIA1o-CACNG8 fusion; 15 μM glutamate; pIC50 = negative log of IC50 in molar; read-out: GluR1-γ8 (pIC50) (converted)
Kindly state IC50 for each of the entries shown.
A number alone suffices; assume nM.

I would be grateful if you could share the reported IC50 for N#Cc1ccc(-c2nc3c(N4CCNC(=O)C4)nccn3c2-c2ccc3[nH]c(=O)[nH]c3c2)cc1 [Example 211] .
3.98

Next record, please: O=C(c1ccccc1)c1nc2c(N3CCOCC3)nccn2c1-c1ccc(O)cc1 [Example 151]
12.6

Do the same for CC(C)(C)c1nn2cnc(C(F)(F)F)cc2c1-c1ccc2c(c1)CC(=O)N2 [Example 225] please
501

Likewise for O=C1Cc2cc(-c3c(-c4ccc(F)cc4)nc4c(N5CCC(O)CC5)nccn34)ccc2N1 [Example 37] ?
0.316

Now this one: CN(C)c1nccn2c(-c3ccc4[nH]c(=O)[nH]c4c3)c(-c3ccc(F)cc3)nc12 [Example 101]
0.501

// next record CC(C)(C)c1nn2c(N3CC4(COC4)C3)nccc2c1-c1ccc2c(c1)CC(=O)N2 [Example 199]
316

Also O=C(Nc1ccccc1)c1nc2c(N3CCOCC3)nccn2c1-c1ccc2[nH]c(=O)[nH]c2c1 [Example 140] , if possible.
20

Similarly, O=C1Cc2cc(-c3c(-c4ccccc4)nn4cnc(C(F)(F)F)cc34)ccc2N1 [Example 222] ?
12.6

Continue with O=C1CN(c2nccn3c(-c4ccc5[nH]ncc5c4)c(-c4ccc(F)cc4)nc23)CCN1 [Example 33]
0.2

Here is the next molecule: CC(C)c1nn2c(N3CCOCC3)ncc(F)c2c1-c1ccc2[nH]ncc2c1 [Example 236]
158

Next entry: CC(=O)N1CCN(c2ncc(Br)n3c(-c4ccc5c(c4)CC(=O)N5)c(Cc4ccccc4)nc23)CC1 [Example 113]
0.316

Repeat with CC(=O)N1CCN(c2nccn3c(-c4ccc5[nH]c(=O)[nH]c5c4)c(-c4ccc(F)cc4)nc23)CC1 [Example 14]
1.58

Record: O=C1CN(c2nccn3c(-c4ccc5c(c4)CC(=O)N5)c(Cc4ccccc4)nc23)CCN1 [Example 38]
1

Please answer likewise for Oc1ccc(-c2c(-c3ccccc3F)nc3c(N4CCOCC4)nccn23)cc1 [Example 84]
63.1

And what about the molecule CC(=O)N[C@@H]1CCN(c2nccn3c(-c4ccc5c(c4)CC(=O)N5)c(-c4ccc(F)cc4)nc23)C1 (single isomer, unassigned) [Example 150] ?
3.16

Subsequent entry: O=C1Cc2cc(-c3c(C4CC4)nn4cnc(C(F)(F)F)cc34)ccc2N1 [Example 228]
39800

And O=C1Cc2cc(-c3c(-c4ccc(F)cc4)nc4c(N5CCC(O)C(F)(F)C5)nccn34)ccc2N1 (stereo not shown) [Example 71] ?
0.251

Then what about the molecule COC1CCN(c2nccn3c(-c4ccc5c(c4)CC(=O)N5)c(-c4ccc(F)cc4)nc23)CC1 [Example 72] ?
0.126

Entry Nc1nccn2c(-c3ccc4[nH]c(=O)[nH]c4c3)c(-c3ccc(F)cc3)nc12 [Example 87] please
398

O=c1ccc2cc(-c3c(-c4ccc(F)cc4)nc4c(N5CCOCC5)nccn34)ccc2[nH]1 [Example 125] ?
39.8

Let us now turn to O=C1Cc2cc(-c3c(C4CCCC4)nn4c(N5CC(O)C5)nccc34)ccc2N1 [Example 205]
631

Do the same for CC(C)Oc1nccn2c(-c3ccc4c(c3)CC(=O)N4)c(-c3ccc(F)cc3)nc12 [Example 129] please
20

###

- target-entity: GluA1o-γ8 (GRIA1o-CACNG8 fusion construct; TARP γ8 dependent AMPA receptor) (Homo sapiens (Human), UniProt P42261+Q8WXS5)
- procedure-details: Calcium flux assay (FLIPR), inhibition of glutamate response of GluA1o-γ8 channel
- Format: cell-based
- experimental-context: HEK293 cells stably expressing GRIA1o-CACNG8 fusion; 15 μM glutamate; pIC50 = negative log of IC50 in molar; read-out: GluR1-γ8 (pIC50) (converted)
Returns: string. Value is 1 if measured IC50 is below 8 nM, and 0 if it is greater than or equal to it.

Check if IC50 falls below 8 nM for "COC1CCN(c2nccc3c(-c4ccc5[nH]ncc5c4)c(-c4ccccc4)nn23)CC1" .
1

# repeat for "CC(=O)N[C@@H]1CCN(c2nccn3c(-c4ccc5[nH]c(=O)[nH]c5c4)c(-c4ccc(F)cc4)nc23)C1"
0

Here is the next molecule: "Fc1ccc(-c2nc3c(N4CCOCC4)nccn3c2-c2ccc3[nH]nnc3c2)cc1"
0

Please give the result for "O=C1Cc2cc(-c3c(-c4ccc(F)cc4)nc4c(N5CC(O)(C(F)(F)F)C5)nccn34)ccc2N1" too.
1

###

- target-entity: GluA1o-γ8 (GRIA1o-CACNG8 fusion construct; TARP γ8 dependent AMPA receptor) (Homo sapiens (Human), UniProt P42261+Q8WXS5)
- procedure-details: Calcium flux assay (FLIPR), inhibition of glutamate response of GluA1o-γ8 channel
- Assay type: cell-based
- experimental-context: HEK293 cells stably expressing GRIA1o-CACNG8 fusion; 15 μM glutamate; pIC50 = negative log of IC50 in molar; read-out: GluR1-γ8 (pIC50) (converted)
- Method: This assay was used to test compounds for their ability to inhibit TARP γ8 dependent AMPA receptor activity. The AMPA receptor is a non-selective cation channel activated by glutamate. […] An in vitro assay was used to determine the potency of test compounds as inhibitors of the glutamate response of the channel formed by GluA1o-γ8. […] Calcium flux following the addition of 15 μM glutamate was monitored using a Molecular Devices FLIPR Tetra. […]
Mark each entry rule met if its IC50 sits below 6 nM, and rule not met for all others.

Dear reviewer, please state whether "O=C1Cc2cc(-c3c(-c4ccc(F)cc4)nc4c(N5CCOCC5)ncc(F)n34)ccc2N1" has IC50 strictly beneath 6 nM.
rule not met

Thanks! And "O=C1CN(c2nccn3c(-c4ccc(O)cc4)c(-c4ccc(F)cc4)nc23)CCN1" ?
rule met

Queued: "Fc1ccc(-c2nc3c(N4CCOCC4)nccn3c2-c2ccc3[nH]cnc3c2)cc1"
rule not met

Quick one: "O=c1[nH]c2ccc(-c3c(-c4ccc(F)cc4)nn4c(N5CCOCC5)nccc34)cc2o1"
rule met

Now this one: "O=C1Cc2cc(-c3c(C4CCC4)nn4cnc(C(F)(F)F)cc34)ccc2N1"
rule not met

###

- target-entity: GluA1o-γ8 (GRIA1o-CACNG8 fusion construct; TARP γ8 dependent AMPA receptor) (Homo sapiens (Human), UniProt P42261+Q8WXS5)
- procedure-details: Calcium flux assay (FLIPR), inhibition of glutamate response of GluA1o-γ8 channel
- Assay type: cell-based
- experimental-context: HEK293 cells stably expressing GRIA1o-CACNG8 fusion; 15 μM glutamate; pIC50 = negative log of IC50 in molar; read-out: GluR1-γ8 (pIC50) (converted)
- Experimental: This assay was used to test compounds for their ability to inhibit TARP γ8 dependent AMPA receptor activity. The AMPA receptor is a non-selective cation channel activated by glutamate. […] An in vitro assay was used to determine the potency of test compounds as inhibitors of the glutamate response of the channel formed by GluA1o-γ8. […] Calcium flux following the addition of 15 μM glutamate was monitored using a Molecular Devices FLIPR Tetra. […]
The threshold is 8 nM. Values of IC50 beneath it are tagged 1.0; values meeting or exceeding it are tagged 0.0.

Given the entry "O=c1[nH]c2ccc(-c3c(-c4ccccc4)nn4cnc(C(F)(F)F)cc34)cc2s1" , would its reported IC50 be below 8 nM?
0.0

Could you do the same for O=C1Cc2cc(-c3c(-c4ccc(F)cc4)nc4c(N5CC[C@H](O)C5)nccn34)ccc2N1 (single isomer, unassigned) , please?
1.0

Would you mind doing "CNc1nccn2c(-c3ccc4c(c3)CC(=O)N4)c(-c3ccc(F)cc3)nc12" as well?
0.0

Follow-up item: "O=C1Cc2cc(-c3c(-c4ccccc4)nc4c(N5CCOCC5)nccn34)ccc2N1"
1.0

Try the compound "O=C1Cc2cc(-c3c(-c4ccncc4)nc4c(N5CC(F)C5)nccn34)ccc2N1"
0.0

Further, for "Oc1ccc(-c2c(-c3ccc(F)cc3)nc3c(N4CCOCC4)nccn23)cc1" ?
0.0

Would you mind doing "O=C1Cc2cc(-c3c(-c4ccccc4)nc4cnc(C(F)(F)F)cn34)ccc2N1" as well?
0.0

Okay, and "O=C1CN(c2nccn3c(-c4ccc5c(c4)CC(=O)N5)c(C(=O)c4ccccc4)nc23)CCN1" ?
0.0

Now the compound "O=C1Cc2cc(-c3c(-c4ccc(F)cc4)nc4c(N5CC(CO)C5)nccn34)ccc2N1"
1.0

Entry "O=C1Cc2cc(-c3c(-c4ccc(F)cc4)nc4c(N5CCS(=O)(=O)CC5)nccn34)ccc2N1" please
1.0

# iterate: "O=C1Cc2cc(-c3c(-c4ccccc4)nc4cnccn34)ccc2N1"
0.0

Consider next the compound "c1ccc(-c2nn3c(N4CCOCC4)nccc3c2-c2ccc3[nH]ncc3c2)cc1" in the same way.
1.0

// query: "CC(C)Oc1nccc2c(-c3ccc4c(c3)CC(=O)N4)c(-c3ccccc3)nn12"
0.0

Now consider "O=c1[nH]c2ccc(-c3c(-c4ccc(F)cc4)nc4c(N5CCOCC5)ncc(F)n34)cc2[nH]1" .
1.0

Also check "Cc1cnc(N2CCOCC2)n2nc(C(C)C)c(-c3ccc4[nH]c(=O)sc4c3)c12"
1.0

Then this compound: "O=c1[nH]c2ccc(-c3c(-c4ccc(F)cc4)nc4c(N5CCOCC5)ncc(Cl)n34)cc2[nH]1"
1.0

Consider next the compound "CC(=O)N1CCN(c2nccn3c(-c4ccc5[nH]ncc5c4)c(Cc4ccccc4)nc23)CC1" in the same way.
1.0
